List of ELISA signal values.
- experimental-system: T1, Recombinant Human DLL4 (delta-like protein 4) (human, UniProt Q9NR61 27-524)
- T1 construct: also called rHuman DLL4; Delta-like 4
- experimental-protocol: ELISA on coated DLL4, Fab at 50 nM (2-fold serial dilution)
Reply with the value as a number alone.

- binder: "Fab VH5-51_IGHD5-18*01>3_IGHJ4*01 G100K/G104T T58D & V3-4_IGLJ1*01 (Fab, V domains shown, Fab; also called H:KT T58D & L:parent) VH: EVQLVQSGAEVKKPGESLKISCKGSGYSFTSYWIGWVRQMPGKGLEWMGIIYPGDSDDRYSPSFQGQVTISADKSISTAYLQWSSLKASDTAMYYCARRKYSYTYDYFDYWGQGTLVTVSS VL: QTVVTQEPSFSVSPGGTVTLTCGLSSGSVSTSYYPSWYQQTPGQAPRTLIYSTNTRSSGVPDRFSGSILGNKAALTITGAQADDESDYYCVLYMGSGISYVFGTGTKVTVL"
  test-result: 0.23

For the next question, use this binder.
State its ELISA signal for this binder: Fab VH5-51_IGHD5-18*01>3_IGHJ4*01 G100K/G104T (KT) & V3-4_IGLJ1*01 R56Y (Fab, V domains shown, Fab; also called H:KT & L:R56Y) VH: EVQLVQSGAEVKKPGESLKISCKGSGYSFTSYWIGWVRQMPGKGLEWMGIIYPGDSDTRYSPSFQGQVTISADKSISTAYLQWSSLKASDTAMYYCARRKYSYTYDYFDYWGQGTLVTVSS VL: QTVVTQEPSFSVSPGGTVTLTCGLSSGSVSTSYYPSWYQQTPGQAPRTLIYSTNTYSSGVPDRFSGSILGNKAALTITGAQADDESDYYCVLYMGSGISYVFGTGTKVTVL
0.211

// data source = patent US20120316071A1
